Structures can show the parent of a compound that is named as a salt.
Assay system wild-type HeLa cell line; read-out recorded as GI50.
assay_endpoint: GI50

• CN(C)CCCNC(=O)c1cccc(-c2ccc(-c3ccc(Br)cc3)n2-c2ccccc2C(F)(F)F)c1 = 260 nM
• CN(C)CCNC(=O)Cc1ccc(-c2ccc(-c3ccc(Cl)cc3)n2-c2ccccc2C(F)(F)F)cc1 [Example 91, hydrochloride] = 10 nM
• CN(C)CCNC(=O)c1ccc(-n2ncc(-c3ccc(Cl)cc3)c2-c2ccccc2C(F)(F)F)cc1 [Example 82, Hydrochloride] = 30 nM
• COc1ccc(-c2ccc(-c3ccc(Br)cc3)n2-c2ccccc2C(F)(F)F)cc1C(=O)NCCN(C)C [Example 53, hydrochloride] = 340 nM
• O=C(NCCN1CCNCC1)c1ccc(-c2ccc(-c3ccc(Cl)cc3)n2-c2ccccc2C(F)(F)F)cc1 [Example 87, hydrochloride] = 20 nM
• CN(C)CCNC(=O)c1ccc(-c2ccc(-c3ccccc3)n2-c2ccccc2C(F)(F)F)c(Cl)c1 [Example 37, hydrochloride] = 50 nM
• CN(C)CCNC(=O)c1cccc(-c2ccc(-c3ccc(Br)cc3)n2-c2ccccc2N)c1 [Example 56, hydrochloride] = 2190 nM

###

System: HCT116 cells
Structures can show the parent of a compound that is named as a salt.
assay_endpoint: log10 of GI50 (log10 of the value in nM)

• CC(C)c1ccc(-c2ccc(-c3cccc(C(=O)NCCN(C)C)c3)n2-c2ccccc2C(F)(F)F)cc1 [Example 22, hydrochloride] = 3.44
• CN(C)CCNS(=O)(=O)c1ccc(-c2ccc(-c3ccc(Br)cc3)n2-c2ccccc2C(F)(F)F)cc1 [Example 44, Hydrochloride] = 2.71
• O=C(Cc1ccc(-c2ccc(-c3ccc(Cl)cc3)n2-c2ccccc2C(F)(F)F)cc1)NCCN1CCNCC1 [Example 101, hydrochloride] = 1.78
• COCc1ccccc1-n1c(-c2ccc(Br)cc2)ccc1-c1ccc(C(=O)NCCN(C)C)cc1 [Example 50] = 3.34
• CN(C)CCNC(=O)c1ccc(-c2ccc(-c3ccc(Br)cc3)n2-c2cnccc2C(F)(F)F)cc1 [Example 41] = 1.70
• COc1cc(-c2ccc(-c3ccc(Br)cc3)n2-c2ccccc2C(F)(F)F)ccc1C(=O)NCCCN(C)C [Example 31, hydrochloride] = 3.16
• CN(C)CCNC(=O)c1ccc(-c2ccc(-c3ccc(Cl)cn3)n2-c2ccccc2C(F)(F)F)cc1 [Example 75, hydrochloride] = 2.18

###

Structures can show the parent of a compound that is named as a salt.
Observed GI50 values for wild-type HeLa cell line are listed in what follows.
assay_endpoint: GI50 (nM)

- CN(C)CCNC(=O)c1ccc(-c2ccc(-c3ccc(Cl)cc3)n2-c2ccccc2C(F)(F)F)cc1 [Example 33, Hydrochloride]: 20
- CN(C)CCNC(=O)c1ccc(Cl)c(-c2ccc(-c3ccc(Br)cc3)n2-c2ccccc2C(F)(F)F)c1 [Example 15, hydrochloride]: 650
- CN(C)CCCNC(=O)c1ccc(-c2ccc(-c3ccc(Cl)cc3)n2-c2ccccc2C(F)(F)F)cc1 [Example 58]: 30
- CN(C)CCNC(=O)c1ccc(-c2ccc(-c3ccc(C#N)cc3)n2-c2ccccc2C(F)(F)F)cc1 [Example 57]: 50
- CN1CC[C@H](NC(=O)c2ccc(-c3ccc(-c4ccc(Cl)cc4)n3-c3ccccc3C(F)(F)F)cc2)C1 [Example 71, hydrochloride]: 10
- CN(C)CCCNC(=O)c1ccc(-c2ccc(-c3ccc(F)cc3)n2-c2ccccc2C(F)(F)F)cc1 [Example 60, hydrochloride]: 30
- CN(C)CCNC(=O)c1ccc(-c2ccc(-c3ccc(Br)cc3)n2-c2ccccc2C(F)(F)F)cn1 [Example 28]: 60
- CN(C)CCNC(=O)c1cccc(-c2ccc(-c3ccc(Br)cc3)n2-c2ccccc2O)c1 [Example 25, hydrochloride]: 2510
- CNCCNC(=O)c1cccc(-c2ccc(-c3ccc(Br)cc3)n2-c2ccccc2C(F)(F)F)c1 [Example 23]: 240
- CN(C)CCNC(=O)c1ccc(-c2ccc(-c3ccc(F)cc3)n2-c2ccccc2C(F)(F)F)cc1 [Example 59, hydrochloride]: 10
